Entry source: patent US20260048051A1

# Protocol text: Plasma and tissue distribution in SD rats
# Assay type: in vivo
# Assay context: female, Sprague-Dawley (SD); F SD rat, Kidney; read-out: AUCINF_obs
Quantity name: AUC0-inf
Report as: number unit

INPUT: # AUC0-inf lookup, item `C[C@@H](c1ccc(Nc2cc(Nc3ncc(F)cc3S(C)(=O)=O)ncn2)nc1)N1CC2(COC2)C1`
OUTPUT: 51800 ng·h/mL

* * *

# Protocol text: Plasma and tissue distribution in SD rats
# Format: in vivo
# Assay context: male SD rat, PO 10 mg/kg, Skin
Quantity name: half-life (h)
Give bare numbers, in h.

INPUT: # half-life lookup, item `C[C@@H](c1ccc(Nc2cc(Nc3ncccc3S(C)(=O)=O)ncn2)nc1)N1CC2(COC2)C1`
OUTPUT: 8.6

* * *

# Protocol text: Plasma and tissue distribution in SD rats
# Type: in vivo
# Assay context: male SD rat, PO 10 mg/kg, Bladder
Quantity name: half-life (h)
Answers are plain numbers, in h.

INPUT: # half-life lookup, item `C[C@@H](c1ccc(Nc2cc(Nc3ncccc3S(C)(=O)=O)ncn2)nc1)N1CC2(COC2)C1`
OUTPUT: 3.38

* * *

# Protocol text: Plasma and tissue distribution in SD rats
# Assay type: in vivo
# Assay context: male, SD, rat, liver, M SD rat, Liver; read-out: AUClast
Quantity name: AUC(0-t) (ng·h/mL)
Answers are plain numbers, in ng·h/mL.

INPUT: # AUC(0-t) lookup, item `C[C@@H](c1ccc(Nc2cc(Nc3ncc(F)cc3S(C)(=O)=O)ncn2)nc1)N1CC2(COC2)C1`
OUTPUT: 14700

* * *

# Protocol text: Plasma and tissue distribution in SD rats
# Format: in vivo
# Assay context: female, SD, rat, bone marrow, F SD rat, Bone Marrow; read-out: AUClast
Quantity name: AUC(0-t) (ng·h/mL)
Numbers only, in ng·h/mL.

INPUT: # AUC(0-t) lookup, item `C[C@@H](c1ccc(Nc2cc(Nc3ncc(F)cc3S(C)(=O)=O)ncn2)nc1)N1CC2(COC2)C1`
OUTPUT: 38700

* * *

# Protocol text: Plasma and tissue distribution in SD rats
# Type: in vivo
# Assay context: Sprague-Dawley, rat, bladder, oral, SD rat, Bladder; read-out: Tissue/Plasma Ratio (AUCinf)
Quantity name: Kp
Answers are plain numbers.

C[C@@H](c1ccc(Nc2cc(Nc3ncccc3S(C)(=O)=O)ncn2)nc1)N1CC2(COC2)C1
5

INPUT: # Kp lookup, item `C[C@@H](c1ccc(Nc2cc(Nc3ncc(F)cc3S(C)(=O)=O)ncn2)nc1)N1CC2(COC2)C1`
OUTPUT: 8.7

* * *

Exercise: for every item that follows, state its recorded efflux ratio at 2 h.
# Protocol text: Caco-2 permeability
# Format: in vitro ADME
# Assay context: human, Caco-2
Give bare numbers.

C[C@@H](c1ccc(Nc2cc(Nc3ncc(F)cc3S(C)(=O)=O)ncn2)nc1)N1CC2(COC2)C1
2.2

INPUT: # efflux ratio at 2 h lookup, item `C[C@@H](c1ccc(Nc2cc(Nc3ncccc3S(C)(=O)=O)ncn2)nc1)N1CC2(COC2)C1`
OUTPUT: 1.38

* * *

# Protocol text: Plasma and tissue distribution in SD rats
# Type: in vivo
# Assay context: male SD rat, PO 10 mg/kg, Liver
# Experimental: The following Example describes the methods and data used to evaluate the tissue distribution of TYK2 inhibitors following the administration of either compound 1 or compound 2. Thirty (30, 15/sex) SD rats supplied by Beijing Vital River Laboratory Animal Technology Co., Ltd. were used in this study. […] The room (s) was controlled and monitored for relative humidity (targeted mean range 40% to 70%) and temperature (targeted mean range 20° C. to 26° C.) with 15 or above air changes/hour. […]
Quantity name: Cmax (ng/g)
Answers are plain numbers, in ng/g.

INPUT: # Cmax lookup, item C[C@@H](c1ccc(Nc2cc(Nc3ncccc3S(C)(=O)=O)ncn2)nc1)N1CC2(COC2)C1 [Compound 1]
OUTPUT: 5400

* * *

# Test target: TYK2-JH2 (Homo sapiens, UniProt P29597)
# Construct: TYK JH2 enzyme mix (ChemPartner: CP20210818A-BV); purchased ChemPartner CP20210818A-BV
# Sequence (P29597 589-875 limits assumed): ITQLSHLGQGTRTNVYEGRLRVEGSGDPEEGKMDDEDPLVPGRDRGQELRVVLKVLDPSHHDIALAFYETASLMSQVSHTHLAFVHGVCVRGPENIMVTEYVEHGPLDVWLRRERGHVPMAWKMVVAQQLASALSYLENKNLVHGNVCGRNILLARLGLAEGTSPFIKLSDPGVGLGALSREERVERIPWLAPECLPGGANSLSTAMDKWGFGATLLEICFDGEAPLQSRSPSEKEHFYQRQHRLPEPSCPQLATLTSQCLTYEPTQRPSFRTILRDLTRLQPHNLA
# Protocol text: TYK2-JH2 HTRF binding assay (ligand efficiency)
# Assay context: calculated from binding-assay IC50 (Equation 1)
Quantity name: Ligand Efficiency

Look over these answered cases.
Cc1cccc(Nc2cc(Nc3ccccc3NS(C)(=O)=O)ncn2)n1
††† (†††: >0.39)
C[C@@H](c1ccc(Nc2cc(Nc3ncc(Cl)cc3S(C)(=O)=O)ncn2)nc1)N1CC2(COC2)C1
††† (†††: >0.39)
CS(=O)(=O)c1cccnc1Nc1cc(Nc2ccc([C@@H](N3CC4(COC4)C3)C(F)(F)F)cn2)ncn1
†† (††: 0.37-0.39)
CC1(Nc2ccc(Nc3cc(Nc4ncccc4S(C)(=N)=O)ncn3)nc2)COC1 (centres unmarked)
††† (†††: >0.39)

# batch: return Ligand Efficiency for each of the 6 compounds below
1. Cc1cc(Nc2cc(Nc3ncccc3S(C)(=O)=O)ncn2)nnc1C(C)N1CC2(COC2)C1 (centres unmarked)
2. C[C@@H](c1ccc(Nc2cc(Nc3ncccc3S(C)(=O)=O)ncn2)nc1)N(C)C
3. CS(=O)(=O)c1cccnc1Nc1cc(Nc2ncccc2F)ncn1
4. CS(=O)(=O)c1ccccc1Nc1cc(NC(=O)C2CC2)ncn1
5. CS(=O)(=O)c1ccccc1Nc1cc(Nc2ccc(CNC3CCOC3)cn2)ncn1 (centres unmarked)
6. C[C@H](c1ccc(Nc2cc(Nc3ncccc3S(C)(=O)=O)ncn2)nc1)N1CCC2(CCOCC2)C1

OUTPUT:
1: †† (††: 0.37-0.39); 2: ††† (†††: >0.39); 3: ††† (†††: >0.39); 4: ††† (†††: >0.39); 5: †† (††: 0.37-0.39); 6: †† (††: 0.37-0.39)

* * *

# Protocol text: Plasma and tissue distribution in SD rats
# Format: in vivo
# Assay context: male, Sprague-Dawley (SD); M SD rat, Heart
Quantity name: Cmax (ng/mL)
One number for each entry, in ng/mL.

INPUT: # Cmax lookup, item `C[C@@H](c1ccc(Nc2cc(Nc3ncc(F)cc3S(C)(=O)=O)ncn2)nc1)N1CC2(COC2)C1`
OUTPUT: 2520

* * *

# Protocol text: Plasma and tissue distribution in SD rats
# Type: in vivo
# Assay context: female, Sprague-Dawley (SD); F SD rat, Eye
Quantity name: Cmax (ng/mL)
One number for each entry, in ng/mL.

INPUT: # Cmax lookup, item C[C@@H](c1ccc(Nc2cc(Nc3ncc(F)cc3S(C)(=O)=O)ncn2)nc1)N1CC2(COC2)C1 [Compound 2]
OUTPUT: 700

* * *

# Protocol text: Plasma and tissue distribution in SD rats
# Assay type: in vivo
# Assay context: male, Sprague-Dawley (SD), rat, brain, M SD rat, Brain; read-out: AUClast
Quantity name: AUC(0-t) (ng·h/mL)
One number for each entry, in ng·h/mL.

INPUT: # AUC(0-t) lookup, item `C[C@@H](c1ccc(Nc2cc(Nc3ncc(F)cc3S(C)(=O)=O)ncn2)nc1)N1CC2(COC2)C1`
OUTPUT: 273

* * *

# Protocol text: Plasma and tissue distribution in SD rats
# Type: in vivo
# Assay context: male; M SD rat, Liver
Quantity name: Tmax (min)
One number for each entry, in min.

INPUT: # Tmax lookup, item `C[C@@H](c1ccc(Nc2cc(Nc3ncc(F)cc3S(C)(=O)=O)ncn2)nc1)N1CC2(COC2)C1`
OUTPUT: 30

* * *

# Protocol text: Plasma and tissue distribution in SD rats
# Type: in vivo
# Assay context: female, SD, rat, lung, F SD rat, Lung; read-out: AUClast
# Description: The following Example describes the methods and data used to evaluate the tissue distribution of TYK2 inhibitors following the administration of either compound 1 or compound 2. Thirty (30, 15/sex) SD rats supplied by Beijing Vital River Laboratory Animal Technology Co., Ltd. were used in this study. […] The room (s) was controlled and monitored for relative humidity (targeted mean range 40% to 70%) and temperature (targeted mean range 20° C. to 26° C.) with 15 or above air changes/hour. […]
Quantity name: AUC(0-t) (ng·h/mL)
Answers are plain numbers, in ng·h/mL.

INPUT: # AUC(0-t) lookup, item `C[C@@H](c1ccc(Nc2cc(Nc3ncc(F)cc3S(C)(=O)=O)ncn2)nc1)N1CC2(COC2)C1`
OUTPUT: 29400

* * *

# Protocol text: Plasma and tissue distribution in SD rats
# Assay type: in vivo
# Assay context: female, SD, rat, heart, po, 10 mg/kg, female SD rat, PO 10 mg/kg, Heart; Tissue AUC0-last/Plasma AUC0-last; read-out: AUC Ratio
Quantity name: Kp

INPUT: # Kp lookup, item C[C@@H](c1ccc(Nc2cc(Nc3ncccc3S(C)(=O)=O)ncn2)nc1)N1CC2(COC2)C1 [Compound 1]
OUTPUT: 1.39

* * *

# Protocol text: Plasma and tissue distribution in SD rats
# Format: in vivo
# Assay context: female, SD, rat, eyeball (left and right), po, 10 mg/kg, female SD rat, PO 10 mg/kg, Eyeball (left and right); Tissue AUC0-last/Plasma AUC0-last; read-out: AUC Ratio
# Method: The following Example describes the methods and data used to evaluate the tissue distribution of TYK2 inhibitors following the administration of either compound 1 or compound 2. Thirty (30, 15/sex) SD rats supplied by Beijing Vital River Laboratory Animal Technology Co., Ltd. were used in this study. […] The room (s) was controlled and monitored for relative humidity (targeted mean range 40% to 70%) and temperature (targeted mean range 20° C. to 26° C.) with 15 or above air changes/hour. […]
Quantity name: Kp
Answers are plain numbers.

INPUT: # Kp lookup, item C[C@@H](c1ccc(Nc2cc(Nc3ncccc3S(C)(=O)=O)ncn2)nc1)N1CC2(COC2)C1 [Compound 1]
OUTPUT: 0.953
